molecular target: SHP2-C SH2; test: SH2 binding enrichment of the phosphorylated peptide, bacterial display (enrichment ratio); higher = better substrate or ligand; peptides without Tyr show the background
Please mark fulfilled if the recorded SH2 binding enrichment is equal to or greater than 0.8, and not fulfilled if it falls below.

HNVAIYEGYAL [ACTC1_Y168_P166A]	fulfilled
PVFIKYLPEWT [PSEN1_Y240_L235P]	fulfilled
SPFEVYVDKSQ [FLNA_Y373]	not fulfilled
KHCEDYVCSYN [DSC1_Y846]	fulfilled
LEITWYPFDME [RIPOR2_Y316_V320M]	fulfilled
RAIGFYSATSK [FAM120A_Y328_YF]	fulfilled
RGESFYQDRMN [RARS_Y338]	not fulfilled
DPNQQYYIAMD [TBX15_Y159_H156N]	not fulfilled
SVQIVYKPVDL [MAPT_Y627]	fulfilled
HNLDFYKMTTN [FGFR3_Y648_K650M_YF]	fulfilled
FGSLLYKYAFK [FANCD2_Y458]	not fulfilled
HRGCLYLAIEY [TEK_Y899_Y897C]	not fulfilled
IVAREYYSEAD [CAMK2A_Y106]	not fulfilled
TLGPFYPSLLF [CRYAA_Y18_R21L]	not fulfilled
SNVEQYQAMVT [TPR_Y965]	not fulfilled
PDDPSYSLVDD [PSTPIP2_Y323_N322S]	not fulfilled
DGDTRYSTFSE [TKTL1_Y318]	fulfilled
RLDRSYSFSFS [PEAR1_Y890_YF]	not fulfilled
MNLLGYRHVRS [CHST4_Y359]	not fulfilled
HTLIKYTDGDQ [PUS7L_Y94]	not fulfilled
LEQDEYALRSH [HADHB_Y244]	not fulfilled
KGKLIYLLRDS [NXPE1_Y350_G353R]	fulfilled
GLRFGYGVLGG [KRTAP20-2_Y15_YF]	fulfilled
EVVGRYSLHNA [MLH1_Y183_V185L]	not fulfilled
MVIPNYSSRTE [UROC1_Y185]	not fulfilled
AQAERYDDMAA [YWHAG_Y20_E15A]	not fulfilled
KTGDYYDLYGG [PTPN11_Y63_N58K]	not fulfilled
HELFVYKCDEN [DOCK3_Y548_YF]	not fulfilled
ESMQSYDLDFP [UNC13B_Y243_D238E_YF]	not fulfilled
TYGVVYRAKDK [CDK11B_Y453]	not fulfilled
SPRDTYSDRIG [CTPS1_Y567_S571I]	not fulfilled
KTTILHKLKLG [ARF1_Y35_Y35H]	fulfilled
SDVCMYRKNIY [SYNE2_Y570]	not fulfilled
SRPTQYSSFSC [SPEM2_Y104]	fulfilled
YTDPYYDYEIE [ZC3H18_Y372_A368T]	not fulfilled
FTAVGYHKHIT [NOMO1_Y1137]	fulfilled
GKFFQYDTWNQ [IGF2_Y116_K120N]	not fulfilled
QFNIQYSSSAA [ERBB2IP_Y981_YF]	not fulfilled
DENWFYTRPAS [RPS19_Y54_A57P]	not fulfilled
CNNFIYGGCRG [SPINT2_Y163]	fulfilled
RAEIVYKSPVV [MAPT_Y711_G706R]	not fulfilled
VTSLKYSTSPY [BRIP1_Y916]	not fulfilled
HKDNNYISMWF [PAPOLG_Y432_V433I]	not fulfilled
FISVGYVDGTQ [HLA-B_Y51_D54G]	not fulfilled
EQKRFYNAMKK [SCN5A_Y1495_K1493R_YF]	not fulfilled
KLKRSYCSPDI [USP8_Y717_S718C]	fulfilled
ADRTRYSAFGG [RBM4_Y361_A359T]	fulfilled
HSDFQYSQRSQ [PKP2_Y168_YF]	fulfilled

###

test system: AncSZ; assay: phosphorylation enrichment, bacterial display (enrichment ratio); higher = better substrate or ligand; peptides without Tyr show the background
Please mark true if the recorded phosphorylation enrichment is equal to or greater than 0.9, and false if it falls below.

DSFATYFRWVL [H2BW1_Y84_R87W]	true
RVAFQYGVTDL [MYBPC3_Y340_I336V]	true
PQQLWYTHKKK [UBTF_Y207_E210K]	true
GLRFGYGVLGG [KRTAP20-2_Y15_YF]	false
FEEDSYSHVMA [FDPS_Y388_I391V_YF]	true
GGTTMYPGIAD [ACTC1_Y308]	false
KEDSVYGSQSV [NFKB2_Y868_A867V]	false
SLKAFYGEDAK [ALDH3A1_Y272_E270A]	false
DYDHSYYFIAT [ESD_Y262_G257D]	true
CNNFIYGGCRG [SPINT2_Y163]	false
RLCQDYDIIGP [ANK1_Y1073_T1075I]	true
CIILLYIFLKN [STXBP1_Y411_R406C]	false
EVDETYVPKKF [ALB_Y521_E525K]	true
DKMEAYNIDET [TEKT4_Y210]	true
DLDTDYGSGYP [RNASEH2A_Y206]	true

###

biological target: Hck (UniProt P08631); assay: phosphorylation enrichment, bacterial display (enrichment ratio); higher = better substrate or ligand; peptides without Tyr show the background
Sequence (P08631 whole entry, looked up): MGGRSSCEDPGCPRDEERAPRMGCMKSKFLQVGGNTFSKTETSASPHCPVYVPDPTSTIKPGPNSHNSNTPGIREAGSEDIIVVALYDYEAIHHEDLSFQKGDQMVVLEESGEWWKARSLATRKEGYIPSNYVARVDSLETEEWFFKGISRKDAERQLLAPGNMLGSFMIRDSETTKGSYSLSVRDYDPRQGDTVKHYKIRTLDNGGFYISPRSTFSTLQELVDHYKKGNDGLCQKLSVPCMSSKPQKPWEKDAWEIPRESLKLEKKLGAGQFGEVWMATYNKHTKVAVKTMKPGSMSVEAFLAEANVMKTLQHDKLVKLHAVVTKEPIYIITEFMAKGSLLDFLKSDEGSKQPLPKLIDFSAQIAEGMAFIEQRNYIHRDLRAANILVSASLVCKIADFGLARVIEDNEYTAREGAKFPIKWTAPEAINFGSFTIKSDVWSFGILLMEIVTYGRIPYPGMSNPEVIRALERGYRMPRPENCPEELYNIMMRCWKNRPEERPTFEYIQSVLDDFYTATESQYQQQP
Please mark MET if the recorded phosphorylation enrichment is equal to or greater than 0.5, and NOT MET if it falls below.

YPPTHYIRRMP [SLC4A11_Y820_V824M]	NOT MET
TLNHQYDYTFH [CSNK1A1_Y292_D297H]	MET
RVKPIYFHTQG [AR_Y916_K911R]	MET
TDGNGYISFNE [LCP1_Y28]	NOT MET
FSAGTYPRMEE [SYCN_Y108_L111M]	NOT MET
VPDTNYTSDEE [STK33_Y439_A437T]	MET
PQGVGYPPQQQ [EP300_Y2219]	MET
PQGVGYPQQQQ [EP300_Y2219_P2221Q]	MET
FEREQYADRTR [RBM4_Y355_A359T_YF]	NOT MET
VTSLKYSTSPY [BRIP1_Y916]	MET
EGTATYAAAVL [JUP_Y644]	MET
ADYPDCKYRPR [SOX11_Y116_Y116C]	NOT MET
SRPTQYSSFSC [SPEM2_Y104]	MET
GREAEYSDKHG [EPHB4_Y574]	NOT MET
ILGRTYYVNHE [NEDD4_Y627]	MET
ADEEYYEIIAA [FEStide_no-pY_2014]	MET
IWIFHYAKGQP [MPZ_Y82_S78W]	NOT MET
KTGDYYDLYGG [PTPN11_Y63_N58K]	MET
DYTEAYNPKIK [CLK1_Y305]	MET
FLNSIYQSRDE [ROS1_Y2227_K2228Q]	MET
SHMVDYQPYRK [TEX37_Y25]	MET

###

tested on: Fer (mouse); assay: phosphorylation enrichment, bacterial display (enrichment ratio); higher = better substrate or ligand; peptides without Tyr show the background
Please mark Fulfilled if the recorded phosphorylation enrichment is equal to or greater than 0.5, and Not fulfilled if it falls below.

PVVKLYATDGR [RP1_Y199]	Fulfilled
SYPREYGSQEG [RBM10_Y48]	Not fulfilled
KPGVNYYFRVS	Not fulfilled
LGSWTYPKTVS [ROS1_Y144_T145P]	Not fulfilled
EEETDYTPVWC [UROD_Y30_G25E]	Fulfilled

###

target: FGFR3 (UniProt P22607); test: phosphorylation enrichment, bacterial display (enrichment ratio); higher = better substrate or ligand; peptides without Tyr show the background
Sequence (P22607 whole entry, looked up): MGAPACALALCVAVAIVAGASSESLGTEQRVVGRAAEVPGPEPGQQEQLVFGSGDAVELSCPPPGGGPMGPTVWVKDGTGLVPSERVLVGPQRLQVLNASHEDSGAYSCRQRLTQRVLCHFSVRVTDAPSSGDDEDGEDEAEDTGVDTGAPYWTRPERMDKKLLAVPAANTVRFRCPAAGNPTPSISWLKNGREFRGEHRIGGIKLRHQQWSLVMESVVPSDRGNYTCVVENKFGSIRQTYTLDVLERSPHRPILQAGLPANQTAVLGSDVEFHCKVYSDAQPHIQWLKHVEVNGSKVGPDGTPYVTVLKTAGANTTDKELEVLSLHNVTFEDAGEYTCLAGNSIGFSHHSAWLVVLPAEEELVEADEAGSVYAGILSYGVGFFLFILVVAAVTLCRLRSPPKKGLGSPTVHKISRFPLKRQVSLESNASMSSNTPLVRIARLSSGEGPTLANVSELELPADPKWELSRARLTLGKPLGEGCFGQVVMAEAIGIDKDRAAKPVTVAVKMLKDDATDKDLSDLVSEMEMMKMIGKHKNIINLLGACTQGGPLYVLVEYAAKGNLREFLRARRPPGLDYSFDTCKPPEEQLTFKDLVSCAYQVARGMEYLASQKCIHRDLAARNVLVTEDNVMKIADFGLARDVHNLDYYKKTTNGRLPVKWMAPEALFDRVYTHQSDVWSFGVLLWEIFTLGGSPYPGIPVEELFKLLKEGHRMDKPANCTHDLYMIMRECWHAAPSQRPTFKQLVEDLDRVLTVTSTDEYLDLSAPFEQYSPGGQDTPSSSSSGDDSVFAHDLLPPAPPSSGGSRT
Result Type: phosphorylation enrichment

KNITEYCRDLI [RECQL_Y492]	0.691
MSSLPYMKMIF [SLC4A11_Y853]	0.706
LKLWDYRRGRC [WDR5B_Y239_S240R]	0.699
KFMVGYEMLAQ [GALT_Y339]	0.697

###

Each record here notes measured phosphorylation enrichment.
biological target: FGFR3 (UniProt P22607); assay: phosphorylation enrichment, bacterial display (enrichment ratio); higher = better substrate or ligand; peptides without Tyr show the background
Result Type: phosphorylation enrichment

RDSQIYAVDYE [MRPS34_Y34_L33I]	1.37
GKFFQYDTWKQ [IGF2_Y116]	0.514
HESEIYGKVCY [CSRP3_Y57_C58G]	0.808

###

biological target: Grb2 SH2 (UniProt P62993); assay: SH2 binding enrichment of the phosphorylated peptide, bacterial display (enrichment ratio); higher = better substrate or ligand; peptides without Tyr show the background
Sequence (P62993 whole entry, looked up): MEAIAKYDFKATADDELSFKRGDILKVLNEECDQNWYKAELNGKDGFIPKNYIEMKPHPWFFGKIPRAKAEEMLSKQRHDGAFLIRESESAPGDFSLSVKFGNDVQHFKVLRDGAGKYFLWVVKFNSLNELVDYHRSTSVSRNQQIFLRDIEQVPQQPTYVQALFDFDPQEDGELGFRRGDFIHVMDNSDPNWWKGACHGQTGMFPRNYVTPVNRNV
Result Type: SH2 binding enrichment

GAALAYGLDKS [HSPA9_Y230_A225G]	0.786
GDFLSYREFHL [ERBIN_Y1107_S1112L_YF]	0.786
FPKARYRWLVL [APTX_Y214_H215R_YF]	0.909
QNTADYFDLFG [PTPN11_Y62_G60A_YF]	0.924
FADTAYNYRHG [PAH_Y166_I164T]	0.723
VPDTNYTSDEE [STK33_Y439_A437T]	1.23
DPNQQYYIAMD [TBX15_Y159_H156N]	0.881
RSSPVYVGRVV [TGM2_Y219]	1.13
MEVGQYIFVKC [CYBB_Y324]	0.781
EDGFAYVPLKD [PRIM2_Y208]	0.992
LAARYYNWVCF [FLT4_Y1231_S1235C]	4.36
SLLLSYYLIKW [NUP160_Y773_P768S]	1.27
FFRDGYMPRQF [GSS_Y270_YF]	1.02
